- ASSAYED_SYSTEM: insulin (Homo sapiens, UniProt P01308)
- Construct: purchased Roche 1376497
- Sequence (P01308 25-54 limits assumed): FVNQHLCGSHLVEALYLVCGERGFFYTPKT
- Sequence (P01308 90-110 limits assumed): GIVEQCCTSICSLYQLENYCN
- ASSAY_METHOD_TEXT: Kinetic analysis using surface plasmon resonance (Biacore T200), immobilized insulin
- Assay type: binding
- CONDITION_PARAMETERS: Table 9, mutation study 5; MGSSHHHHHHGSS-[Y#####]-A
REPORTED_ENDPOINT: kd (s⁻¹)
Give just the number in s⁻¹; leave the unit off.

{"columns": ["SUBSTANCE", "ASSAYED_SYSTEM", "kd (s⁻¹)"],
 "data": [
  ["Y02711: insulin binding Y variant, Y00358 with Q26E, SEQ ID NO:151 (LAEAKEAAIAELDSKGVGAAKIKWIEDAKSVETVQFLKQAILAELPA; Engineered insulin binding Y variant)", "insulin (Homo sapiens, UniProt P01308)", 0.008],
  ["Y02714: insulin binding Y variant, Y00310 with Q26E, SEQ ID NO:154 (LAEAKEAAIAELDSKGVGAYQIKFIEIAHTVEEVQLMKQAILADLPA; Engineered insulin binding Y variant)", "insulin (Homo sapiens, UniProt P01308)", 0.16],
  ["Y02713: insulin binding Y variant, Y00310 with K15Y, SEQ ID NO:153 (LAEAKEAAIAELDSYGVGAYQIKFIQIAHTVEEVQLMKQAILADLPA; Engineered insulin binding Y variant)", "insulin (Homo sapiens, UniProt P01308)", 0.014]
]}

Lab note: measured kd of Y02716: insulin binding Y variant, Y00301 with K15Y Q26E, SEQ ID NO:156 (LAEAKEAAIAELDSYGVGARQIKWIEQAKSVEVVQWLKQAILADLPA; Engineered insulin binding Y variant) was 0.21

Reference source for all entries: patent US11505576B2
